Attribution: patent US8569302B2

- Test system: human hepatoma Huh-7 cell line harboring a HCV replicon
- protocol summary: HCV replicon assay (inhibition of viral replication, luciferase readout)
- Type: cell-based
- conditions: Hepatitis C virus, 72 h, Huh-7 HCV replicon cells, 3 days incubation
- Experimental: The anti-HCV activity of the compounds of this invention was tested in a human hepatoma Huh-7 cell line harboring a HCV replicon. The assay comprised the following steps: Step 1: Compound Preparation and Serial Dilution. […] The percent cytotoxicity was determined by calcein AM conversion to fluorescent product. […] The percent anti-HCV replication activity was determined by the luminescence signal from the testing well compared to DMSO control wells. […]
endpoint: inhibition at 2 µM (%)
Numbers only; they are read as %.

compound	unit of measurement	inhibition at 2 µM
CC(C)(C)C#Cc1cc(N(C(=O)[C@H]2CC[C@H](C)CC2)[C@H]2CC[C@H](Oc3ccc(CN4CCCC4=O)cn3)CC2)c(C(=O)O)s1 [Compound 170]	%	99.9
CN(C)Cc1ccnc(O[C@H]2CC[C@H](N(c3cc(C#CC4(C(F)(F)F)CCC4)sc3C(=O)O)C(=O)[C@H]3CC[C@H](C)CC3)CC2)c1 [Compound 338]	%	99.9
CC(C)(C)C#Cc1cc(N(C(=O)[C@H]2CC[C@H](C)CC2)[C@H]2CC[C@H](Sc3nnc4ccccn34)CC2)c(C(=O)O)s1 [Compound 92]	%	100
CC(C)(C)C#Cc1cc(N(C(=O)[C@H]2CC[C@H](C)CC2)[C@H]2CC[C@H](Oc3nccc(=O)[nH]3)CC2)c(C(=O)O)s1 [Compound 326]	%	99.9
CC1CCC(C(=O)N(c2cc(C#CC(C)(C)C)sc2C(=O)O)[C@H]2CC[C@H](Oc3cnccc3CN3CCC(N(C)C)C3)CC2)CC1 (stereo partly drawn) [Compound 195]	%	99.7

Here's the next entry for you.
Which inhibition at 2 µM value belongs to CC1=CCC(C(=O)N(c2cc(C#CC(C)(C)C)sc2C(=O)O)[C@H]2CC[C@H](O[C@H]3CCOC3)CC2)[C@H](C)C1 (stereo partly drawn) [Compound 304] ?
100

---

- Tested on: human hepatoma Huh-7 cell line harboring a HCV replicon
- protocol summary: HCV replicon assay (inhibition of viral replication, luciferase readout)
- Type: cell-based
- conditions: Hepatitis C virus, 72 h, Huh-7 HCV replicon cells, 3 days incubation
Measured inhibition at 2 µM by item
I only need the number, in %, no unit after it.

See these solved cases before continuing.
>>> print(df.to_string())
                            chemical_smiles                              assay_target            endpoint  unit_of_measurement  measured_number
0  C[C@H]1CC[C@H](C(=O)N(c2cc(C#CC3(C(F)(F)F)CC3)sc2C(=O)O)[C@H]2CC[C@H](Oc3ccncn3)CC2)CC1  human hepatoma Huh-7 cell line harboring a HCV replicon  inhibition at 2 µM                    %             99.8
1  CC(C)(C)C#Cc1cc(N(C(=O)[C@H]2CC[C@H](C)CC2)[C@H]2CC[C@H](Sc3ccc4ccccc4n3)CC2)c(C(=O)O)s1  human hepatoma Huh-7 cell line harboring a HCV replicon  inhibition at 2 µM                    %             99.8
2  CC(C)(C)C#Cc1cc(N(C(=O)[C@H]2CC[C@H](C)CC2)[C@H]2CCN(S(=O)(=O)c3cccs3)C2)c(C(=O)O)s1  human hepatoma Huh-7 cell line harboring a HCV replicon  inhibition at 2 µM                    %             99.9
3  CN(C)Cc1ccnc(O[C@H]2CC[C@@H](N(c3cc(C#CC(C)(C)C)sc3C(=O)O)C(=O)[C@H]3CC[C@H](C)CC3)CC2)c1  human hepatoma Huh-7 cell line harboring a HCV replicon  inhibition at 2 µM                    %              100
4  CN(C)c1nc(O[C@H]2CC[C@H](N(c3cc(C#CC(C)(C)C)sc3C(=O)O)C(=O)[C@H]3CC[C@H](C)CC3)CC2)ncc1F  human hepatoma Huh-7 cell line harboring a HCV replicon  inhibition at 2 µM                    %             99.4

Moving on to the next molecule.
Need inhibition at 2 µM, item `CC(C)(C)C#Cc1cc(N(C(=O)[C@H]2CC[C@H](C)CC2)[C@H]2CC[C@H](Sc3nccs3)CC2)c(C(=O)O)s1`
99.9
